target: Adenosine receptor A2b (Homo sapiens); assay: Displacement of [3H]DPCPX from human recombinant adenosine A2B receptor expressed in HEK293 cells at 1 uM by microplate beta scintillation counter; assay type: cell-based
measurement label: Activity (%)

Worked cases, Activity given:
CCCn1c(=O)c2[nH]c(Cc3ccccc3)nc2n(CC2CCCO2)c1=O (configuration not stated) = 32
CCn1c(=O)c2[nH]c(-c3ccccc3)nc2n(CC[S+]([O-])CC)c1=O (configuration not stated) = 32
CCn1c(=O)c2[nH]c(Cc3ccccc3)nc2n(CCS(=O)(=O)CC)c1=O = 55
CCn1c(=O)c2[nH]c(Cc3ccco3)nc2n(Cc2cccs2)c1=O = 30

(A) CCCn1c(=O)c2c(nc(-c3ccccc3)n2C)n(CC2CCCO2)c1=O (configuration not stated)
(B) CCCn1c(=O)c2[nH]c(Cc3ccccc3)nc2n(CCOCC)c1=O
(C) CCCn1c(=O)c2c(nc(-c3ccccc3)n2C)n(CCSCC)c1=O
(D) CCCn1c(=O)c2[nH]c(Cc3ccccc3)nc2n(CCSCC)c1=O
Parameters: sort_field (Activity), sort_dir (desc). Reply with the labels, ordered as the question asks. A, C, D, B
(A: 41%, C: 26%, D: 12%, B: 5%)
